The reported numbers originate from ChEMBL document CHEMBL1157539.

# Tested on: HepG2
# assayExplanation: GSK_TCMDC: Percent inhibition of human HepG2 cell line. Test compounds present at 10uM.
# Format: functional
Our labelling divides records by Inhibition into ranges: group 1: < 10%; group 2: ≥ 10% and < 30%; group 3: ≥ 30%

                                    molecule  assignedclass
 0  COc1ccc(-c2ccc(CNCc3ccc(F)cc3)cc2)cc1S(=O)(=O)NCCN1CCCC1.O=C(O)C(F)(F)F        group 2
 1  O=C(NCCCN(Cc1ccc(F)cc1)c1ccccn1)C(c1cc2ccccc2o1)N1CCN(C(c2ccccc2)c2ccccc2)CC1 (centres undefined)        group 2
 2  Nc1nc2c(c(=O)[nH]1)CN(S(=O)(=O)c1ccc(C(=O)N[C@@H](CCC(=O)O)C(=O)O)cc1)CC2        group 3
 3  CS(=O)(=O)Cc1ccc(Nc2nccc(-c3c(-c4cccc(NC(=O)C5CCCCC5)c4)nn4ncccc34)n2)cc1        group 3
 4  COc1ccc2ncn(-c3ccc(C(N)=O)c(OCc4ccccc4C(F)(F)F)c3)c2c1        group 2
 5  COc1ccc2nccc([C@@H](O)CN3CCC(NCc4cc5oc(=O)[nH]c5cc4Cl)CC3)c2c1.O=C(O)C(=O)O        group 1
 6  CC(C)(C)[C@@H](Nc1ccc(C#N)c2ccccc12)C(=O)NC1(Cc2ccc(O)cc2)CCCC1        group 2
 7               O=C(O)c1cccnc1Sc1ccc(Cl)cc1        group 1
 8  CN(C)CCCOc1ccc(CNCC(C)(C)c2nc(-c3ccc(Cl)c(O)c3)c(-c3ccncc3)[nH]2)cc1.Cl        group 3
 9  CCCC/C=C(\Cl)c1ccc(O)c2c1C[C@H]1C[C@H]3[C@H](N(C)C)C(O)=C(C(N)=O)C(=O)[C@@]3(O)C(O)=C1C2=O.Cl        group 2
10  N#Cc1ccc2c(c1)CN(C1CCC(NC(=O)c3cc(-c4ccc(Cl)cc4)cs3)CC1)CCC2 (centres undefined)        group 3
11  COc1ccc(CNC2CCN(C)CC2)cc1-c1ccc(S(=O)(=O)NCc2ccccc2)cc1.O=C(O)C(F)(F)F        group 3
12           Fc1ccccc1C=NN=c1cc[nH]c2ccccc12        group 1

---

Some compounds, each annotated with its measured Inhibition.
# Tested on: Plasmodium falciparum
# assayExplanation: GSK_TCMDC: Inhibition of Plasmodium falciparum 3D7 in whole red blood cells, using parasite LDH activity as an index of growth. Test compounds present at 2uM
# Assay type: functional
reportedProperty: Inhibition

In [3]: df
Out[3]:
                                    compound  result
 0  CCc1cccc2sc(N3CCN(C(=O)c4ccc([N+](=O)[O-])o4)CC3)nc12     97%
 1  COc1ccc(C(=O)NCC(C)(C)c2nc(-c3ccc(Cl)c(O)c3)c(-c3ccncc3)[nH]2)cc1OCCN(C(C)C)C(C)C.Cl    100%
 2  O=[N+]([O-])c1ccc(-n2nc(Cc3ccccc3)n(Cc3cccc(F)c3)c2=S)c(C(F)(F)F)c1    100%
 3  CC(C)(CNC(=O)C1CCN(CCOc2ccc(Cl)cc2)CC1)c1nc(-c2ccc(Cl)c(O)c2)c(-c2ccncc2)[nH]1.Cl    100%
 4  COc1ccc2cc(-c3nc(-c4c(Cl)cccc4Cl)[nH]c3-c3ccnc(NCCC4CCCN4C)c3)ccc2c1.O=C(O)C(F)(F)F (configuration not stated)    100%
 5  Cc1cc(N[C@@H](Cc2ccccc2)C(=O)NCCOc2ccccc2)nc(NCCc2ccc(F)cc2)n1.O=C(O)C(F)(F)F     99%
 6  O=C(Nc1ccc(Cl)c(Cl)c1)N(Cc1ccccc1Br)C1CCNCC1     96%
 7  Cc1cccc2nc(-c3cccc(-c4cccc(CNC(C)C)c4)c3)[nH]c12.O=C(O)C(F)(F)F    100%
 8  CC(C)c1sc(N2CCN(C)CC2)nc1C(=O)Nc1ccc(F)cc1C(F)(F)F.O=C(O)C(F)(F)F    100%
 9   Cc1cc(I)ccc1Nc1nc2nonc2nc1Nc1ccc(I)cc1C    100%
10  Cc1cc(N[C@@H](Cc2ccccc2)C(=O)NCCc2ccccc2)nc(NCC2CCCCC2)n1.O=C(O)C(F)(F)F    100%
11      CCc1cc(NCc2ccncc2)nc(Nc2ccc(F)cc2)n1     92%
